Molecular target: human FGFR1c + KLB receptor complex on HEK293 iLite FGF21 reporter cells (human, UniProt P11362 22-822; Q86Z14 1-1044)
Sequence (P11362 22-822, chain 1 of 2): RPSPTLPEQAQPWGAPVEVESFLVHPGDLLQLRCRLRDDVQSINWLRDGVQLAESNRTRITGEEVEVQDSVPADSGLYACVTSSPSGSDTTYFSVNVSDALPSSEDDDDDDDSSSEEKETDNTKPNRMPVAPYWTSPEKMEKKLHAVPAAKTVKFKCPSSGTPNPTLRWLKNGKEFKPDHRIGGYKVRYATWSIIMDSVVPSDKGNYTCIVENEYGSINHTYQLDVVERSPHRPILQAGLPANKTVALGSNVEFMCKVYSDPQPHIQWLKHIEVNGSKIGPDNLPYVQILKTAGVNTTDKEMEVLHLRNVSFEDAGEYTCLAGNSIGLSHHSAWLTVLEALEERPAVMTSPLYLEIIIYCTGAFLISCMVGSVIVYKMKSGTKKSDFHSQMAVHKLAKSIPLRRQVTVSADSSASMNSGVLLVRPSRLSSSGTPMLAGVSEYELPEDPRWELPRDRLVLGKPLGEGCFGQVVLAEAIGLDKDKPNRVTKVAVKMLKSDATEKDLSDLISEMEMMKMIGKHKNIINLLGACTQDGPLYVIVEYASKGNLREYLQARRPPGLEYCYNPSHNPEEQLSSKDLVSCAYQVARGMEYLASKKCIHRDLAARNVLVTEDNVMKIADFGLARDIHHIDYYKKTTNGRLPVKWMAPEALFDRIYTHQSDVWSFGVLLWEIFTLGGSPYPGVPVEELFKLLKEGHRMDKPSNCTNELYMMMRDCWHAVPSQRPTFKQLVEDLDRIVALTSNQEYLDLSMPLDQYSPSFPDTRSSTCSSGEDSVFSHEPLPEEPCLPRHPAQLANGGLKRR
Sequence (Q86Z14 whole entry, chain 2 of 2): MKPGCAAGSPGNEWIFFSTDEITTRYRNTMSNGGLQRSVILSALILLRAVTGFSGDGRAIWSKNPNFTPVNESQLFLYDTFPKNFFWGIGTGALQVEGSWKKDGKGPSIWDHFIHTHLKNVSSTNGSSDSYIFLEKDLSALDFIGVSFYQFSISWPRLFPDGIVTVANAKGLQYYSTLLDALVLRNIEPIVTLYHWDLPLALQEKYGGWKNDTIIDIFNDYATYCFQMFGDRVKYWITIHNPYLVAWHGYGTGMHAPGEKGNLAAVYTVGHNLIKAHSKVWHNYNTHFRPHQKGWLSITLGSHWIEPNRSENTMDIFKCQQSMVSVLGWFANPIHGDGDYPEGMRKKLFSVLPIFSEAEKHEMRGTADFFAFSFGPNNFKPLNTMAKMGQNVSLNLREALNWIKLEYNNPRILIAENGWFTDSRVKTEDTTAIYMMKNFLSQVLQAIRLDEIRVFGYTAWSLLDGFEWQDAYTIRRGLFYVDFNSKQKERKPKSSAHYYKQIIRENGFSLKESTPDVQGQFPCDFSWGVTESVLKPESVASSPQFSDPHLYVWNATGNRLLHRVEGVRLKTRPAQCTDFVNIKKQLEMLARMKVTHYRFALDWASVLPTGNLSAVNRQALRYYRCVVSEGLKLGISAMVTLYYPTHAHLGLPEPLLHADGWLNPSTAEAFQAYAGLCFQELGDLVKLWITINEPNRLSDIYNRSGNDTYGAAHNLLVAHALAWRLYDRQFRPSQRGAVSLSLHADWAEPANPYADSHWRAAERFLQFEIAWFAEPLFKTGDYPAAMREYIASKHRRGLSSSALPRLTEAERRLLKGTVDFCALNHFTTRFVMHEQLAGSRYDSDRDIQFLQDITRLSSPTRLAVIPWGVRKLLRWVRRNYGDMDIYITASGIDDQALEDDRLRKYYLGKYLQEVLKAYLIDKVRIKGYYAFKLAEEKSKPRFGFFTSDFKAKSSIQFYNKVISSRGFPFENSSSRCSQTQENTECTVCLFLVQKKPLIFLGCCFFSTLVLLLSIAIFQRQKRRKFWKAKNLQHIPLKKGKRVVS
Experiment: cell-based or functional assay
Field: label. Allowed values: satisfied (EC50 < 0.4 nmol/L) or not satisfied (EC50 >= 0.4 nmol/L).

For this binder, is EC50 lower than 0.4 nmol/L? Ab0334 (antibody, IgG4, V domains shown) VH: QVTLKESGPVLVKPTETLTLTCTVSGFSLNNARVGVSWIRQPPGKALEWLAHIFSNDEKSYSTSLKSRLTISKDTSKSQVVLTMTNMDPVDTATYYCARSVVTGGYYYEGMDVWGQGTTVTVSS VL: SYVLTQPPSVSVAPGQTARITCGGSNIGSESVHWYQQKPGQAPVLVVYSASDRPSGIPERFSGSNSGNTATLTISRVEAGDEADYYCQVWAGSSDHVVFGGGTKLTVLG not satisfied

Is EC50 of Ab0459 (antibody, IgG4, V domains shown) VH: QVTLKESGPVLVKPTETLTLTCTVSGFSLSYARVGVSWIRQPPGKALEWLAHIFSNDEKSYSTSLKSRLTISKDTSKSQVVLTMTNMDPVDTATYYCARSVVTGGYYYEGMDVWGQGTTVTVSS VL: SYVLTQPPSVSVAPGQTARITCGGSNIGSESVHWYQQKPGQAPVLVVYSASDRPSGIPERFSGSNSGNTATLTISRVEAGDEADYYCQVWEGESDHVVFGGGTKLTVLG strictly below 0.4 nmol/L? satisfied

Here's an entry: Ab0458 (antibody, IgG4, V domains shown) VH: QVTLKESGPVLVKPTETLTLTCTVSGFSLTNARVGVSWIRQPPGKALEWLAHIFSNDEKSYSTSLKSRLTISKDTSKSQVVLTMTNMDPVDTATYYCARSVVTGGYYYEGMDVWGQGTTVTVSS VL: SYVLTQPPSVSVAPGQTARITCGGSNIGSESVHWYQQKPGQAPVLVVYSASDRPSGIPERFSGSNSGNTATLTISRVEAGDEADYYCQVWEGESDHVVFGGGTKLTVLG . Is its EC50 below 0.4 nmol/L? satisfied

Please determine if Ab0374 (antibody, IgG4, V domains shown) VH: QVTLKESGPVLVKPTETLTLTCTVSGFSLNNARVGVSWIRQPPGKALEWLAHIWSNDEKSYSTSLKSRLTISKDTSKSQVVLTMTNMDPVDTATYYCARSVVTGGYYYEGMDVWGQGTTVTVSS VL: SYVLTQPPSVSVAPGQTARITCGGNNIGSESVHWYQQKPGQAPVLVVDDSDRPSGIPERFSGSNSGNTATLTISRVEAGDEADYYCQVFDGNSEHVVFGGGTKLTVLG is below 0.4 nmol/L in terms of EC50. not satisfied
